Origin of the recorded values: patent US9650339B2

Exercise: for every item that follows, state its recorded pIC50.
# System: H3K4me3 mark
# ASSAY_NOTES: Histone lysine demethylase immunofluorescence assay, non-transfected U2OS cells
# Format: cell-based
# ASSAY_CONTEXT: Homo sapiens, staining of the H3K4me3 mark, 20 hours incubation with compound
# Description: U2OS cells were harvested and seeded into multi well plates into media containing compound. The media used was DMEM containing 5% FBS and pen/strep. 20 hours after incubation of cells with compounds, the cells were washed once in PBS, harvested by fixation with formaldehyde 4% aqueous solution, and washed in PBS. Subsequently, the cells were permeabilized in PBS with 0.2% Triton X-100. Blocking was performed in PBS with 0.2% Triton X-100 and 5% FBS. […]
pIC50: −log10 of the molar value.

Kindly note the recorded pIC50 for CN(C)C(=O)CNCc1cc(/C=N/CCC2CCCCC2)ccn1 [Compound 36] , which is > 6.60

// field: pIC50; key: CCN(CC)CCCCNCc1cc(C=O)ccn1 [Compound 107] ; value = > 6.60

Entry CCN(CC)CCCCNCc1cc(C2NCCCN2C)ccn1 (stereo not shown) [Compound 68] — recorded pIC50 = > 6.60

For reference, reported pIC50 for CN1CCC(CNCc2cc(C=O)ccn2)CC1 [Compound 100] stands at > 6.60

For record CCN(C[C@@H]1CCC[C@@H]1N(C)C)C(=O)CNCc1cc(/C=N/CCO)ccn1 [Compound 85] the listed pIC50 is > 6.60

Summary for this compound, CCN(CCN(C)C)C(=O)CNCc1cc(CNC(=O)C(F)(F)F)ccn1 [Compound 25] : pIC50 is > 6.60

The recorded pIC50 for CCN(CC)CCCCNCc1cc(C=NCC(C)O)ccn1 (stereo not shown) [Compound 74] is > 6.60

So, COc1ccccc1CN1CCC(NC(=O)CNCc2cc(CN)ccn2)CC1 [Compound 9] ? Its pIC50 was 5.60 to 6.60

The compound identified as CN(C)C(=O)CNCc1cc(/C=N\C2CC2)ccn1 [Compound 33] registered its pIC50 at 5.60 to 6.60

Input CON=Cc1ccnc(CNCCCN(C)C)c1 [Compound 64] . Output pIC50: 5.60 to 6.60

====

# ASSAY_TARGET: KDM4A (Homo sapiens)
# Construct: Full length
# Sequence (O75164 whole entry): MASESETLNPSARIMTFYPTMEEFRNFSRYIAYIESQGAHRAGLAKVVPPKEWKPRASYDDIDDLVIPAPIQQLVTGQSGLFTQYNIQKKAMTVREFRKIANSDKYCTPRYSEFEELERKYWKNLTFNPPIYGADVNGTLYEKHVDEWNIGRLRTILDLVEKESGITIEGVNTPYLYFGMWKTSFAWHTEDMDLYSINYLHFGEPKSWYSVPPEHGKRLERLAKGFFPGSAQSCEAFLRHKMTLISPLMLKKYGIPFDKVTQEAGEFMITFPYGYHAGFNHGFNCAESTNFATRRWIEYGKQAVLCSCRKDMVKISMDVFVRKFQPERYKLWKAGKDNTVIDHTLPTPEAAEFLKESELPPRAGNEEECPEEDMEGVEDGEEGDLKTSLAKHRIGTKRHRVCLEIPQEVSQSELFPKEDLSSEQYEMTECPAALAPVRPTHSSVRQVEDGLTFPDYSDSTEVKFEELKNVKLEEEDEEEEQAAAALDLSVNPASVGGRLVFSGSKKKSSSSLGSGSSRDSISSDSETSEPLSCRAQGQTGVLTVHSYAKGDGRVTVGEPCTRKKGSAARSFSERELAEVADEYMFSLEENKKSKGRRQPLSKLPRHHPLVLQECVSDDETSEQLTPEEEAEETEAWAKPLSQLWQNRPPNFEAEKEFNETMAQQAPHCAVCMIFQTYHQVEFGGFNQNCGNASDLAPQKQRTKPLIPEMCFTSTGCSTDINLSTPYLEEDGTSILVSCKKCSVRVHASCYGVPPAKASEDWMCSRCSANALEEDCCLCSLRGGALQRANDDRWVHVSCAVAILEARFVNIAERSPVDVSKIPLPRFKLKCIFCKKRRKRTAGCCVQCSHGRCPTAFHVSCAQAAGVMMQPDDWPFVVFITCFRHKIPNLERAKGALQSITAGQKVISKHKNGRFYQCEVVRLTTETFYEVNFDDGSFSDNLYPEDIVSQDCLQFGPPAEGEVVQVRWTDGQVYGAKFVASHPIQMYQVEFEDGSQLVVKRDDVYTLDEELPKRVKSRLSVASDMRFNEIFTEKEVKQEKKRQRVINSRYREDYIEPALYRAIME
# ASSAY_NOTES: Histone lysine demethylase immunofluorescence assay, U2OS cells transfected with KDM4A
# ASSAY_CONTEXT: U2OS cells transfected with pCMVHA KDM4A; mark detected H3K9me3; 20 hours
ASSAY_METRIC: IC50

Observed IC50 on KDM4A (Homo sapiens), entry O=C(CNCc1cc(/C=N/C2CC2)ccn1)NC1CCN(Cc2ccccc2)C1 (stereo not shown) , equals > 2500 nM

Result for `O=Cc1ccnc(CNCC(=O)N2CCC[C@@H]2CN2CCCC2)c1` , tested on KDM4A (Homo sapiens), IC50: 250 to 2500 nM

# `CN(C)C(=O)CNCc1cc(/C=N/CCC2CCCCC2)ccn1` with KDM4A (Homo sapiens): IC50 is > 2500 nM

Measured IC50 for this entry CCN(CCN(C)C)C(=O)CNCc1cc(C2OCC(Cc3ccccc3)CN2C(=O)C(F)(F)F)ccn1 (stereo not shown) on KDM4A (Homo sapiens): < 250 nM

Form field IC50 for item `CN(C)CCNCc1ccnc(CNCC(=O)N(C)C)c1` on KDM4A (Homo sapiens): > 2500 nM

The reported IC50 value, KDM4A (Homo sapiens), for `CN(CCCNCc1cc(/C=N/C2CC2)ccn1)Cc1ccccc1` reads > 2500 nM

Test item `COc1ccccc1CN1CCC(NC(=O)CNCc2cc(CNC3CC3)ccn2)CC1` ; KDM4A (Homo sapiens); reported IC50 was > 2500 nM

Observed IC50 on KDM4A (Homo sapiens), entry `COc1ccccc1CN1CCC(NC(=O)CNCc2cc(CN)ccn2)CC1` , equals > 2500 nM

Value sought: IC50, system KDM4A (Homo sapiens), item `C(=N/C1CC1)/c1ccnc(CNCCCN2CCCC2)c1` . Result: > 2500 nM

Field IC50 (KDM4A (Homo sapiens)), entry CCN(CCN(C)C)C(=O)CNCc1cc(C2OCC3(CC3)CN2C(=O)C(F)(F)F)ccn1 (stereo not shown) : < 250 nM

Entry CN(C)CC1CCC(CNCc2cc(/C=N/C3CC3)ccn2)CC1 (stereo not shown) ; assay system KDM4A (Homo sapiens); IC50 recorded at < 250 nM

IC50 of `CCN(CCN(C)C)C(=O)CNCc1cc(C=O)ccn1` , assay on KDM4A (Homo sapiens), is 250 to 2500 nM

# `CCN(CC)CCCCNCc1cc(/C=N/CCOC)ccn1` with KDM4A (Homo sapiens): IC50 is 250 to 2500 nM
